Target: human NaPi-2a (Homo sapiens, UniProt Q06495)
Sequence (Q06495 1-639): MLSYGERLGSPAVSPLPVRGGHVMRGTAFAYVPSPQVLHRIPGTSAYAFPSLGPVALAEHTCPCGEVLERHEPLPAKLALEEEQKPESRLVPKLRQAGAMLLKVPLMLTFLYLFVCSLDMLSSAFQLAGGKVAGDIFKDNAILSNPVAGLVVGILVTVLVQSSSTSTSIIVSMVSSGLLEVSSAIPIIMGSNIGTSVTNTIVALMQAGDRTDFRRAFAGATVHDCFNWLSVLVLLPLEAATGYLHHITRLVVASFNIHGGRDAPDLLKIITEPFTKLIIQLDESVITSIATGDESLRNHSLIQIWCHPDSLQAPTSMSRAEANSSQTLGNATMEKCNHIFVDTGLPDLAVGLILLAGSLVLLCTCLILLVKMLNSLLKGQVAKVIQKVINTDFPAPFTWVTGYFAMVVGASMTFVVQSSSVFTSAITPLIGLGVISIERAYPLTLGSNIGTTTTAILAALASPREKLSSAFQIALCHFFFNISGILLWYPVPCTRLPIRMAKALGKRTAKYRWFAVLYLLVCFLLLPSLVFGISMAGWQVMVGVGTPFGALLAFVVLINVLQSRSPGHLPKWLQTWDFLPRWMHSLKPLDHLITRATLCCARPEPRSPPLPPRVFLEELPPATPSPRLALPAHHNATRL
Test: Sodium-dependent phosphate uptake of Xenopus oocytes which expressed NaPi-2a (32P)
Conditions: phosphate uptake, Xenopus oocytes expressing human NaPi-2a; five concentration levels
pIC50: −log10 of the molar value.
OUTCOME MEASURE: pIC50

# MOLECULE, OUTCOME MEASURE, OBS VALUE
measured = [
    ("O=C(Nc1sc2ccccc2c1C(=O)N/N=C/c1cccc(F)c1)c1cccc(CN2CCC(CO)CC2)c1", "pIC50", 5.43),
]

[1] CCN(CC)CCNCc1cccc(C(=O)Nc2sc3c(c2C(=O)N/N=C/c2ccc(C)c(C)c2)CCC3)c1
[2] Cc1ccc(/C=N/NC(=O)c2c(NC(=O)c3cccc(CN(CC(C)O)CC(C)O)c3)sc3c2CCCC3)cc1 (centres unmarked)
[3] CC(O)CN(Cc1cccc(C(=O)Nc2sc3c(c2C(=O)N/N=C/c2cccc(F)c2)CCC3)c1)CC(C)O (centres unmarked)
[4] CCN(CC)CCN(C)Cc1cccc(C(=O)Nc2ccc(N3CCCCC3)cc2C(=O)N/N=C/c2ccc(Cl)c(C(F)(F)F)c2)c1
List by increasing pIC50. API: response body holds the labels in the requested order.
1, 3, 2, 4
(1: 4.62, 3: 4.92, 2: 5.44, 4: 5.78)

[P] CC(O)CN(Cc1cccc(C(=O)Nc2ccc(F)cc2C(=O)N/N=C/c2cccc(F)c2)c1)CC(C)O (centres unmarked)
[Q] CCN(CC)CCNCc1cccc(C(=O)Nc2sc3c(c2C(=O)N/N=C/c2ccc(C)cc2)CCC3)c1
I would appreciate it if you could say which entry, P or Q , has the lower pIC50 value. // return label of chosen record
Q
(Q: 4.43, P: 4.79)

====

molecular target: rat NaPi-2b (Rattus norvegicus); test: Sodium-dependent phosphate uptake of Xenopus oocytes which expressed NaPi-2b (32P); conditions: Xenopus oocytes expressing rat NaPi-2b, 32P radioactive phosphorus; read-out: IC50 (phosphate uptake inhibitory activity)
Sequence (Q9JJ09 whole entry): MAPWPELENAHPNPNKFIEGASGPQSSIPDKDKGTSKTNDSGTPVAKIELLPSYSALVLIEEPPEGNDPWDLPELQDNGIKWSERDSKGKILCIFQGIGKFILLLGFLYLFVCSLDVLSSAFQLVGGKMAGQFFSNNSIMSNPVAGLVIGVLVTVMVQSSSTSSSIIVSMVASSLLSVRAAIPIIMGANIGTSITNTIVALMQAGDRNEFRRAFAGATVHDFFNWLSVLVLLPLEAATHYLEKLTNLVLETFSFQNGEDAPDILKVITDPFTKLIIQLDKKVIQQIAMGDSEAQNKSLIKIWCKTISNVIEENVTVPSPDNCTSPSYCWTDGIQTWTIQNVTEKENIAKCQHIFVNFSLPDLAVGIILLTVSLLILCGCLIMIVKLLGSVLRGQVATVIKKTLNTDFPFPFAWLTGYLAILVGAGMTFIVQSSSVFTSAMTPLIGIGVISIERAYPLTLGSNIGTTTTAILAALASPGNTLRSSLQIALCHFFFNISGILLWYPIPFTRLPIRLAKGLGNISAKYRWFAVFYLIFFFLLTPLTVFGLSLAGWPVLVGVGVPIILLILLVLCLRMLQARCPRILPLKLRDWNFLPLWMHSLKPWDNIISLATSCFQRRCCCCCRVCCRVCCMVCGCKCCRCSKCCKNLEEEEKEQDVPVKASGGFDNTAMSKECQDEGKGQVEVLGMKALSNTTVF
Recorded IC50 values for a group of compounds are listed next.

# COMPOUND, TARGET OR TEST SYSTEM, OBS VALUE
measured = [
    ("CCN(CC)CCSCc1cccc(C(=O)Nc2ccc(N3CCCCC3)cc2C(=O)N/N=C/c2ccc(C)c(C)c2)c1 [Compound 876]", "rat NaPi-2b (Rattus norvegicus)", "< 3 µM"),
    ("Cc1ccc(/C=N/NC(=O)c2cc(N3CCC(C)CC3)ccc2NC(=O)c2cccc(CSCCO)c2)cc1C [Compound 1069]", "rat NaPi-2b (Rattus norvegicus)", "< 1 µM"),
]

Moving on to another compound below.
// IC50 lookup, compound = COc1ccc(C(=O)Nc2ccc(I)cc2C(=O)N/N=C/c2ccc(F)cc2)cc1OC [Compound 205] , result: < 3 µM

Origin of values: patent US8134015B2
